Hey, just so you know, these numbers are from PubChem BioAssay AID1996.

# settings: buffer; pH 7.4; 200.0 µM
Short version: solubility kinetic at least 20 µg/mL is Fulfilled, less is Not fulfilled.

# example entries with known answers
compound	category_label
COc1ccc(CC(=O)OCC(=O)Nc2cccc(Cl)c2)cc1	Fulfilled
CCOc1cccc2cc(C(=O)NCc3ccc(C)cc3)c(=N)oc12	Not fulfilled
CC(=O)Nc1ccc(SC(C)C(=O)NC2CCCC2)cc1 (stereo not given)	Fulfilled
COc1ccccc1C1C(C(C)=O)=C(O)C(=O)N1c1ccc(O)cc1 (stereo not given)	Fulfilled
CC1(C)CC(NC(=S)NCc2ccco2)CC(C)(C)N1	Fulfilled
Cc1ccc(NC(=O)Cc2cccs2)cc1Cl	Not fulfilled

IN: Is it the case that O=C(Cc1cccs1)Nc1ccc(F)c(F)c1 has solubility kinetic reaching or exceeding 20 µg/mL?
OUT: Fulfilled

IN: Determine whether measured solubility kinetic meets or exceeds 20 µg/mL for CCCOC(=O)CC1C(=O)NCCN1Cc1cc(OC)cc(OC)c1 (stereo not given)
OUT: Fulfilled

IN: Does the compound CC(C)(C)C(=O)C1=C(O)C(=O)N(Cc2ccccc2)C1c1ccccc1F (stereo not given) have recorded solubility kinetic that is 20 µg/mL or more?
OUT: Fulfilled

IN: Is it the case that c1ccc2c(c1)NCC1CCCN21 (stereo not given) has solubility kinetic reaching or exceeding 20 µg/mL?
OUT: Not fulfilled

IN: Item O=C(Nc1ccc(F)cc1F)NC1CCN(Cc2c(F)cccc2Cl)CC1 with solubility kinetic of 20 µg/mL or above?
OUT: Not fulfilled

IN: Assess whether reported solubility kinetic for COc1ccc(C(=O)O/N=C(\N)c2ccccc2)cc1OC sits at 20 µg/mL or higher.
OUT: Fulfilled

IN: Please indicate if the recorded solubility kinetic for O=C(Nc1ccccc1)c1cc2ccc3ccccc3c2s1 meets or exceeds 20 µg/mL.
OUT: Not fulfilled

IN: Quick check: does CC(CNC(=O)CCc1ccccc1)NC(=O)CCc1ccccc1 (stereo not given) have solubility kinetic greater than or equal to 20 µg/mL?
OUT: Not fulfilled

IN: hey, is solubility kinetic for this one >= 20 µg/mL? Cc1ccc(C(=O)N2CC=C(c3ccccc3)CC2)o1
OUT: Fulfilled

IN: Identify whether the reported solubility kinetic of the following compound is 20 µg/mL or greater: O=C(NCCCc1ccccc1)c1ccc(F)cc1
OUT: Fulfilled

IN: Confirm if solubility kinetic reported for the compound O=C(CCCc1ccccc1)NCc1ccc2c(c1)OCO2 is 20 µg/mL or above.
OUT: Fulfilled

IN: solubility kinetic >= 20 µg/mL for O=C(NC1=NCCS1)c1cccc(Br)c1 ?
OUT: Not fulfilled

IN: Could you verify whether the entry Cc1cc(NC(=O)CSc2nc3c(cc2C#N)CCC3)no1 shows solubility kinetic of no less than 20 µg/mL?
OUT: Not fulfilled

---

# settings: buffer; pH 7.4; 200.0 µM
readout_type: solubility kinetic (µg/mL)
Numbers only; they are read as µg/mL.

Study these solved cases before continuing.
molecule	measured
CCOc1ccc(NS(=O)(=O)c2ccc3[nH]c(=O)[nH]c3c2)cc1	2
COc1cccc(OC)c1OCCN1CCCC1	32.4
COc1cccc(-c2nc(NCc3cccnc3)c3ccccc3n2)c1O	0.3
O=Cc1c(NCc2ccccc2)c2ccccc2[nH]c1=O	20.7
CN1C(=O)/C(=C\c2ccc(N3CCCCCC3)cc2)C(=O)NC1=S	2.7

IN: Provide one value: measured solubility kinetic of Cc1ccc(C(=O)OCc2cc(=O)n3ccsc3n2)s1
OUT: 6.8

IN: // Input: CC1CCc2c(sc(NC(=O)COC(=O)C3CCCO3)c2C#N)C1 (configuration not stated) . Output its solubility kinetic only.
OUT: 34.2
